- EXPERIMENT NOTES: Viability qHTS for spleen associated tyrosine kinase inhibitor (SYKi) drug resistant MV4-11 cells (AID 1963824); also: nearly all actives have a fitted effect of over 35% in size
- CONDITIONS: SYKi-resistant MV4-11 viability, CellTiter-Glo, 72 h; series mostly up to 45 µM
Inconclusive results are not listed. Activity calls are given as the source filed them. Calls follow the shape of the dose curve; as a rule, active = well fitted cell-killing curve with a large enough effect; inconclusive = small, poorly fitted or top-dose-only effect, or effect the other way; inactive = no such curve, though single readings can be large or run the other way.
A correct response names exactly one class from active, inactive

Look over these answered cases.
COMPOUND	CLASS NAME
CC(=O)c1ccc2c(c1)C(O)C(C(C)(C)O)O2 (stereo unspecified)	inactive
Cc1cccc(C)c1NC(=O)CN(CC(=O)O)CC(=O)O	inactive
CN(C)CCN(Cc1ccc(-c2ccc(CNCCc3ccccc3)cc2)cc1)C(=O)CCC1CCCC1	active
c1cnc(N2CCN(Cc3ccc4c(c3)OCO4)CC2)nc1	inactive
CCCCCCCCCCCCCCCC[N+](C)(C)CCN(Cc1ccc(OC)cc1)c1ncccn1	active
[Cl][In]([Cl])[Cl]	inactive
O=C(O)c1n[nH]c2c1C[C@H]1C[C@@H]21	inactive
CCCNC(=O)[C@H]1O[C@@H]1C(=O)N[C@H](C(=O)N1CCC[C@H]1C(=O)OC)C(C)CC (stereo partly specified)	active

*Q* What was the test verdict on C/C(=C/CCC(CO)C1CCC2(C)C3CCC4C(C)(C)C(OC5OC(CO)C(O)C(O)C5O)CC(O)C45CC35CCC12C)COC1OC(CO)C(O)C(O)C1O (stereo unspecified) ?
*A* inactive

*Q* Write down the call the test reported for this compound. Item: CC(=O)c1[nH]cc(CCC(=O)O)c1CC(=O)O
*A* inactive

*Q* Answer briefly: the call reported for CCN1CCCC1CNC(=O)c1cc(S(=O)(=O)CC)c(N)cc1OC (stereo unspecified) in this assay.
*A* inactive
